assay type: in vivo; details: rat, plasma, po, 65 mg/kg
ATTRIBUTE MEASURED: Cmax (ng/mL)
Response body: numeric value in ng/mL, unit text excluded.

Reported Cmax for "COC(=O)Nc1nc2cc(C(=O)c3ccc(F)cc3)ccc2[nH]1" : what is it? 910

* * *

assay: in vitro; conditions: male, human, Cytotoxicity (%), 6.5 µg/ml
ATTRIBUTE MEASURED: cytotoxicity (%)
Your answer should be a plain number; it is taken to be in %.

# input compound: COC(=O)Nc1nc2cc(C(=O)c3ccc(F)cc3)ccc2[nH]1 [Flubendazole, flubendazole] ; wanted: its cytotoxicity 43

* * *

assay: in vitro; details: male, human, Cytotoxicity (%), 10.0 µg/ml
ATTRIBUTE MEASURED: cytotoxicity (%)
Answer format: numeric, % implied, no suffix.

Which cytotoxicity value belongs to COC(=O)Nc1nc2cc(C(=O)c3ccc(F)cc3)ccc2[nH]1 [Flubendazole, flubendazole] ? 0

These entries and their values trace back to paper PMC4840262.
